Cited source: patent US12371416B2

- System: HL-60
- test: Cytotoxicity (XTT) on HL-60 cells
- Assay type: cell-based, human
- condition.context: 10 μM, 72 h
List of Cell viability HL60 10 μM values.
Provide the reading as a plain figure in % vs. control.

[[record]]
molecule = "COC(=O)[C@H](CC(C)C)NC(=O)CNC(=O)C(=O)[C@@H]1CCCN1C(=O)CNC(=O)c1ccnc2ccccc12"
system = "HL-60"
units_text = "% vs. control"
result_value = 112

[[record]]
molecule = "COc1ccc(CCNC(=O)C(=O)[C@@H]2CCCN2C(=O)CNC(=O)c2ccnc3ccccc23)cc1OC"
system = "HL-60"
units_text = "% vs. control"
result_value = 101

[[record]]
molecule = "O=C(NCCc1ccccc1)C(=O)[C@@H]1CCCN1C(=O)CNC(=O)c1ccnc2ccccc12"
system = "HL-60"
units_text = "% vs. control"
result_value = 110

[[record]]
molecule = "O=C(CNC(=O)C(=O)[C@@H]1CCCN1C(=O)CNC(=O)c1ccnc2ccccc12)NCc1ccccc1"
system = "HL-60"
units_text = "% vs. control"
result_value = 112

[[record]]
molecule = "COC(=O)C(C)NC(=O)C(=O)[C@@H]1CCCN1C(=O)CNC(=O)c1ccnc2ccccc12 (mixture of isomers)"
system = "HL-60"
units_text = "% vs. control"
result_value = 102

[[record]]
molecule = "COc1ccc(CNC(=O)C(=O)[C@@H]2CCCN2C(=O)CNC(=O)c2ccnc3ccccc23)cc1OC"
system = "HL-60"
units_text = "% vs. control"
result_value = 88


Now for the molecule whose Cell viability HL60 10 μM we want.
Record `COc1ccc(NC(=O)C(=O)[C@@H]2CCCN2C(=O)CNC(=O)c2ccnc3ccccc23)cc1` . Reported Cell viability HL60 10 μM: 110

====

- Test system: HepG2
- test: Cytotoxicity (XTT) on HepG2 cells
- Assay type: cell-based, human
- condition.context: 100 μM, 72 h
assay.metric: Cell viability HepG2 100 μM (% vs. control)
Provide the reading as a plain figure in % vs. control.

[[record]]
compound = "COC(=O)C(C)NC(=O)C(=O)[C@@H]1CCCN1C(=O)CNC(=O)c1ccnc2ccccc12 (mixture of isomers)"
units_text = "% vs. control"
result_value = 105

[[record]]
compound = "COC(=O)[C@H](Cc1ccccc1)NC(=O)CNC(=O)C(=O)[C@@H]1CCCN1C(=O)CNC(=O)c1ccnc2ccccc12"
units_text = "% vs. control"
result_value = 121

[[record]]
compound = "COc1ccc(CNC(=O)C(=O)[C@@H]2CCCN2C(=O)CNC(=O)c2ccnc3ccccc23)cc1OC"
units_text = "% vs. control"
result_value = 92

[[record]]
compound = "O=C(NCc1ccccc1)C(=O)[C@@H]1CCCN1C(=O)CNC(=O)c1ccnc2ccccc12"
units_text = "% vs. control"
result_value = 107

[[record]]
compound = "COC(=O)c1ccc(NC(=O)C(=O)[C@@H]2CCCN2C(=O)CNC(=O)c2ccnc3ccccc23)cc1"
units_text = "% vs. control"
result_value = 63

[[record]]
compound = "COC(=O)CNC(=O)C(=O)[C@@H]1CCCN1C(=O)CNC(=O)c1ccnc2ccccc12"
units_text = "% vs. control"
result_value = 105


Now for the compound whose Cell viability HepG2 100 μM we want.
Form: item `CC(C)(C)OC(=O)CNC(=O)C(=O)[C@@H]1CCCN1C(=O)CNC(=O)c1ccnc2ccccc12` ; test system HepG2; Cell viability HepG2 100 μM: 109

====

- Test system: CCRF-CEM
- test: Cytotoxicity (XTT) on CCRF-CEM cells
- Type: cell-based, human
- condition.context: 10 μM, 72 h
assay.metric: Cell viability CEM 10 μM (% vs. control)
Provide the reading as a plain figure in % vs. control.

Worked examples follow.
[[record]]
molecule = "CC(C)NC(=O)C(=O)[C@@H]1CCCN1C(=O)CNC(=O)c1ccnc2ccccc12"
system = "CCRF-CEM"
assay_metric = "Cell viability CEM 10 μM"
result_value = 93

[[record]]
molecule = "COc1ccc(CCNC(=O)C(=O)[C@@H]2CCCN2C(=O)CNC(=O)c2ccnc3ccccc23)cc1OC"
system = "CCRF-CEM"
assay_metric = "Cell viability CEM 10 μM"
result_value = 108


Record `O=C(NCc1ccccc1)C(=O)[C@@H]1CCCN1C(=O)CNC(=O)c1ccnc2ccccc12` . Reported Cell viability CEM 10 μM: 105

Record `CC(C)NC(=O)CNC(=O)C(=O)[C@@H]1CCCN1C(=O)CNC(=O)c1ccnc2ccccc12` . Reported Cell viability CEM 10 μM: 113

Record `CN(C)C(=O)CNC(=O)C(=O)[C@@H]1CCCN1C(=O)CNC(=O)c1ccnc2ccccc12` . Reported Cell viability CEM 10 μM: 104

Record `COc1ccc(NC(=O)C(=O)[C@@H]2CCCN2C(=O)CNC(=O)c2ccnc3ccccc23)cc1` . Reported Cell viability CEM 10 μM: 92

Record `CCCCCNC(=O)C(=O)[C@@H]1CCCN1C(=O)CNC(=O)c1ccnc2ccccc12` . Reported Cell viability CEM 10 μM: 94

Record `O=C(NCC(=O)N1CCCC1)C(=O)[C@@H]1CCCN1C(=O)CNC(=O)c1ccnc2ccccc12` . Reported Cell viability CEM 10 μM: 90

Record `O=C(CNC(=O)C(=O)[C@@H]1CCCN1C(=O)CNC(=O)c1ccnc2ccccc12)NCc1ccccc1` . Reported Cell viability CEM 10 μM: 89

Record `COC(=O)[C@H](CC(C)C)NC(=O)CNC(=O)C(=O)[C@@H]1CCCN1C(=O)CNC(=O)c1ccnc2ccccc12` . Reported Cell viability CEM 10 μM: 96

Record `O=C(NCCc1ccccc1)C(=O)[C@@H]1CCCN1C(=O)CNC(=O)c1ccnc2ccccc12` . Reported Cell viability CEM 10 μM: 105

Record `COC(=O)CNC(=O)C(=O)[C@@H]1CCCN1C(=O)CNC(=O)c1ccnc2ccccc12` . Reported Cell viability CEM 10 μM: 110

Record `COC(=O)c1ccc(NC(=O)C(=O)[C@@H]2CCCN2C(=O)CNC(=O)c2ccnc3ccccc23)cc1` . Reported Cell viability CEM 10 μM: 106

Record `COC(=O)[C@H](CCC(=O)OCc1ccccc1)NC(=O)CNC(=O)C(=O)[C@@H]1CCCN1C(=O)CNC(=O)c1ccnc2ccccc12` . Reported Cell viability CEM 10 μM: 114

Record COC(=O)C(C)NC(=O)C(=O)[C@@H]1CCCN1C(=O)CNC(=O)c1ccnc2ccccc12 (mixture of isomers) . Reported Cell viability CEM 10 μM: 97

====

List of Cell viability HeLa S3 10 μM values.
- Tested on: Hela
- test: Cytotoxicity (XTT) on Hela cells
- Format: cell-based, human
- condition.context: 10 μM, 72 h
Provide the reading as a plain figure in % vs. control.

Worked examples follow.
[[record]]
compound = "CN(C)C(=O)CNC(=O)C(=O)[C@@H]1CCCN1C(=O)CNC(=O)c1ccnc2ccccc12 [Compound 5a]"
result_value = 92

[[record]]
compound = "CC(C)NC(=O)C(=O)[C@@H]1CCCN1C(=O)CNC(=O)c1ccnc2ccccc12 [Compound 3i]"
result_value = 78

[[record]]
compound = "COC(=O)[C@H](CCC(N)=O)NC(=O)CNC(=O)C(=O)[C@@H]1CCCN1C(=O)CNC(=O)c1ccnc2ccccc12 [Compound 5g]"
result_value = 109


Now for the compound whose Cell viability HeLa S3 10 μM we want.
Record O=C(CNC(=O)C(=O)[C@@H]1CCCN1C(=O)CNC(=O)c1ccnc2ccccc12)NCc1ccccc1 [Compound 5d] . Reported Cell viability HeLa S3 10 μM: 95

====

- Test system: HepG2
- test: Cytotoxicity (XTT) on HepG2 cells
- Format: cell-based, human
- condition.context: 10 μM, 72 h
assay.metric: Cell viability HepG2 10 μM (% vs. control)
Provide the reading as a plain figure in % vs. control.

[[record]]
smiles_code = "COC(=O)[C@H](CC(C)C)NC(=O)CNC(=O)C(=O)[C@@H]1CCCN1C(=O)CNC(=O)c1ccnc2ccccc12"
assay_metric = "Cell viability HepG2 10 μM"
units_text = "% vs. control"
result_value = 75


Record `O=C(NC1CC1)C(=O)[C@@H]1CCCN1C(=O)CNC(=O)c1ccnc2ccccc12` . Reported Cell viability HepG2 10 μM: 88

Record `COc1ccc(NC(=O)C(=O)[C@@H]2CCCN2C(=O)CNC(=O)c2ccnc3ccccc23)cc1` . Reported Cell viability HepG2 10 μM: 95

====

- Test system: CCRF-CEM
- test: Cytotoxicity (XTT) on CCRF-CEM cells
- Assay type: cell-based, human
- condition.context: 100 μM, 72 h
List of Cell viability CEM 100 μM values.
Provide the reading as a plain figure in % vs. control.

[[record]]
compound = "COc1ccc(CCNC(=O)C(=O)[C@@H]2CCCN2C(=O)CNC(=O)c2ccnc3ccccc23)cc1OC [Compound 3e]"
system = "CCRF-CEM"
units_text = "% vs. control"
result_value = 85

[[record]]
compound = "CCCCCNC(=O)C(=O)[C@@H]1CCCN1C(=O)CNC(=O)c1ccnc2ccccc12 [Compound 3j]"
system = "CCRF-CEM"
units_text = "% vs. control"
result_value = 119

[[record]]
compound = "O=C(NC1CC1)C(=O)[C@@H]1CCCN1C(=O)CNC(=O)c1ccnc2ccccc12 [Compound 3h]"
system = "CCRF-CEM"
units_text = "% vs. control"
result_value = 115

[[record]]
compound = "COC(=O)[C@H](CCC(N)=O)NC(=O)CNC(=O)C(=O)[C@@H]1CCCN1C(=O)CNC(=O)c1ccnc2ccccc12 [Compound 5g]"
system = "CCRF-CEM"
units_text = "% vs. control"
result_value = 101

[[record]]
compound = "COC(=O)[C@H](CCC(=O)OCc1ccccc1)NC(=O)CNC(=O)C(=O)[C@@H]1CCCN1C(=O)CNC(=O)c1ccnc2ccccc12 [Compound 5h]"
system = "CCRF-CEM"
units_text = "% vs. control"
result_value = 103

[[record]]
compound = "COc1ccc(CNC(=O)C(=O)[C@@H]2CCCN2C(=O)CNC(=O)c2ccnc3ccccc23)cc1OC [Compound 3b]"
system = "CCRF-CEM"
units_text = "% vs. control"
result_value = 88

[[record]]
compound = "COC(=O)[C@H](Cc1ccccc1)NC(=O)CNC(=O)C(=O)[C@@H]1CCCN1C(=O)CNC(=O)c1ccnc2ccccc12 [Compound 5f]"
system = "CCRF-CEM"
units_text = "% vs. control"
result_value = 72

[[record]]
compound = "O=C(NCCc1ccccc1)C(=O)[C@@H]1CCCN1C(=O)CNC(=O)c1ccnc2ccccc12 [Compound 3d]"
system = "CCRF-CEM"
units_text = "% vs. control"
result_value = 85


Record O=C(CNC(=O)C(=O)[C@@H]1CCCN1C(=O)CNC(=O)c1ccnc2ccccc12)NCc1ccccc1 [Compound 5d] . Reported Cell viability CEM 100 μM: 107

Record O=C(NCC(=O)N1CCCC1)C(=O)[C@@H]1CCCN1C(=O)CNC(=O)c1ccnc2ccccc12 [Compound 5b] . Reported Cell viability CEM 100 μM: 109

Record CN(C)C(=O)CNC(=O)C(=O)[C@@H]1CCCN1C(=O)CNC(=O)c1ccnc2ccccc12 [Compound 5a] . Reported Cell viability CEM 100 μM: 100

Record COC(=O)[C@H](CC(C)C)NC(=O)CNC(=O)C(=O)[C@@H]1CCCN1C(=O)CNC(=O)c1ccnc2ccccc12 [Compound 5e] . Reported Cell viability CEM 100 μM: 104

Record O=C(NCc1ccccc1)C(=O)[C@@H]1CCCN1C(=O)CNC(=O)c1ccnc2ccccc12 [Compound 3a] . Reported Cell viability CEM 100 μM: 94
